Assay: Tmax in Mycobacterium tuberculosis infected patient at 20 mg/kg, po administered daily for 5 days
Assay type: ADME, organism-based
Parameters: dose 20 mg/kg, route oral
Conditions: human, in vivo
readout: Tmax (h)

INSERT INTO results (compound_string, endpoint_unit, reported_measurement) VALUES
  ('CO[C@H]1/C=C/O[C@@]2(C)Oc3c(C)c(O)c4c(O)c(c(/C=N/N5CCN(C)CC5)c(O)c4c3C2=O)NC(=O)/C(C)=C\C=C\[C@H](C)[C@H](O)[C@@H](C)[C@@H](O)[C@@H](C)[C@H](OC(C)=O)[C@@H]1C', 'h', 3.27);

* * *

Test: Tmax in Mycobacterium tuberculosis infected patient at 3 mg/kg
Format: ADME, organism-based
Parameters: dose 3 mg/kg
Conditions: human, in vivo
readout: Tmax

INSERT INTO results (compound_string, reported_measurement) VALUES
  ('CO[C@H]1/C=C/O[C@@]2(C)Oc3c(C)c(O)c4c(O)c(c(/C=N/N5CCN(C)CC5)c(O)c4c3C2=O)NC(=O)/C(C)=C\C=C\[C@H](C)[C@H](O)[C@@H](C)[C@@H](O)[C@@H](C)[C@H](OC(C)=O)[C@@H]1C', '3.12 h');

* * *

Assay: clinical
Conditions: human, in vivo, 3 mg/kg
Description: Cmax in Mycobacterium tuberculosis infected patient at 3 mg/kg
readout: Cmax (ng/mL)

INSERT INTO assay_data (molecule, endpoint_unit, reported_measurement) VALUES
  ('CO[C@H]1/C=C/O[C@@]2(C)Oc3c(C)c(O)c4c(O)c(c(/C=N/N5CCN(C)CC5)c(O)c4c3C2=O)NC(=O)/C(C)=C\C=C\[C@H](C)[C@H](O)[C@@H](C)[C@@H](O)[C@@H](C)[C@H](OC(C)=O)[C@@H]1C [RIFAMPIN]', 'ng/mL', 2530);

* * *

Assay: Tmax in Mycobacterium tuberculosis infected patient at 6 mg/kg
Format: ADME, organism-based
Set-up: dose 6 mg/kg
Settings: human, in vivo
readout: Tmax (h)

INSERT INTO assay_data (compound, readout, reported_measurement) VALUES
  ('CO[C@H]1/C=C/O[C@@]2(C)Oc3c(C)c(O)c4c(O)c(c(/C=N/N5CCN(C)CC5)c(O)c4c3C2=O)NC(=O)/C(C)=C\C=C\[C@H](C)[C@H](O)[C@@H](C)[C@@H](O)[C@@H](C)[C@H](OC(C)=O)[C@@H]1C [RIFAMPIN]', 'Tmax', 3.67);

* * *

Test: clinical
Conditions: human, in vivo, 12 mg/kg
Description: Cmax in Mycobacterium tuberculosis infected patient at 12 mg/kg
readout: Cmax (ng/mL)

INSERT INTO measurements (compound_string, reported_measurement) VALUES
  ('CO[C@H]1/C=C/O[C@@]2(C)Oc3c(C)c(O)c4c(O)c(c(/C=N/N5CCN(C)CC5)c(O)c4c3C2=O)NC(=O)/C(C)=C\C=C\[C@H](C)[C@H](O)[C@@H](C)[C@@H](O)[C@@H](C)[C@H](OC(C)=O)[C@@H]1C', 13000);

* * *

Assay: clinical
Details: human, in vivo, po, 20 mg/kg
Description: Cmax in Mycobacterium tuberculosis infected patient at 20 mg/kg, po administered daily for 5 days
readout: Cmax at 120 h (ng/mL)

INSERT INTO measurements (compound_string, reported_measurement) VALUES
  ('CO[C@H]1/C=C/O[C@@]2(C)Oc3c(C)c(O)c4c(O)c(c(/C=N/N5CCN(C)CC5)c(O)c4c3C2=O)NC(=O)/C(C)=C\C=C\[C@H](C)[C@H](O)[C@@H](C)[C@@H](O)[C@@H](C)[C@H](OC(C)=O)[C@@H]1C', 14000);

* * *

Assay: Tmax in Mycobacterium tuberculosis infected patient at 12 mg/kg
Type: ADME, organism-based
Set-up: dose 12 mg/kg
Details: human, in vivo
readout: Tmax (h)

INSERT INTO results (compound_string, reported_measurement) VALUES
  ('CO[C@H]1/C=C/O[C@@]2(C)Oc3c(C)c(O)c4c(O)c(c(/C=N/N5CCN(C)CC5)c(O)c4c3C2=O)NC(=O)/C(C)=C\C=C\[C@H](C)[C@H](O)[C@@H](C)[C@@H](O)[C@@H](C)[C@H](OC(C)=O)[C@@H]1C', 2.5);
